protocol: yeast display, Sf9 membrane polyspecificity reagent, FACS + sequencing; frameworks hold sequencing errors
attribute_measured: polyreactivity (PSR sort gate)

INSERT INTO assay_data (seq, experimental_result) VALUES
  ('QVQLVESGGGLVQAGGSLRLSCAASGNIFDVYAMGWYRQAPGKERELVADIDRGGTTYADSVKGRFTISRDNAKNTVYLQMNSLKPVDTAVYYCAADYVQGFGFYYQWLYDYWGQGTQVTVSS', 'low polyreactivity'),
  ('QVQLVESGGGLVQARGSLRLICAASGSTFWYYAKGWYRQAPGKERELVAAITSGDSTYYADSVKGRFTISRDNAKNTVYLQMNSLKPEDTAVYYCAADLPWEDGYYYYSGYTEYDYWGQGTQVTVSS', 'low polyreactivity'),
  ('QVQLVESGGGLVQAGGSLGLSCAASGFTFHKYAMGWYRQAPGKERELVAAITSSGGSTYYADSVKGRFTISRDNAKNTVYLQMNSLKPEDTAVYYCAVGFYYFSSWYSYDYWGQGTQVTVSS', 'high polyreactivity'),
  ('QVHLVESGGGLVQAGGSLRLSFDASGRIFYRNVMGWYRQAPGKERELVATITWGGSTYYADSVKGRFTISRYNEKNTVYLQMNSLKPEDTAVYYCATVRSRLFGQYYYWGQGTQVTVTS', 'high polyreactivity'),
  ('QDQLVESVGGLVQAGCSLRLSSAASVSIFVIYAMGWYRQAPGNERELVAAISWNGGSTFYADSVKGRITISRDNAKNTVYLQMNSQKPEDTAVYYCNTVASYYRWKSYYYWGQGTQVTVSS', 'high polyreactivity');

---

protocol: yeast display, Sf9 membrane polyspecificity reagent, FACS + sequencing; frameworks hold sequencing errors
attribute_measured: polyreactivity (PSR sort gate)

INSERT INTO assay_data (seq, attribute_measured, experimental_result) VALUES
  ('QVQLVESGGGLVQAGGSLRLSCAASGFIFSTYAMGWYRQAPGKERELVAAISWSGGRTNYADSVKGRFTISRDNAKNTVYLQMNSLKPEDTAVYYCAVGGERGARIGSNHRGSRYDYWGQGTQVTVSS', 'polyreactivity (PSR sort gate)', 'high polyreactivity'),
  ('QVQLVESGGGLVQAGGSLRLSCAASGRTFGTYALGWYRQAPGKERELVASITSGDSTNYADSVKGRFTISRDNAKNTVYLQMNRLKPEDTAVYYCNARGDVIVTPPKFSFNYEYWGQGTQVTVSS', 'polyreactivity (PSR sort gate)', 'low polyreactivity'),
  ('QVQLVESGGGLVQAGGSLRLTSAASGRIFSHNAMGWCRPAPGKERELVAAITVGGGSTFYADSVKGRFTISRDNAKNTVYLQMNSLKPEDTAVYYCAADYYTQWQTRYDYWGQGTQVTVSS', 'polyreactivity (PSR sort gate)', 'low polyreactivity'),
  ('QVQLVESGGGLVQPGGSLRLSCAASRSIFKVYAMGWYRQEPGKEREFVAAITSSDSNTNYADSVKGRFTISRDNAKNTVYLQMHSLKPEDTAVYYCNARIYNRRYVPHYGFNYWGQGTQVTVSS', 'polyreactivity (PSR sort gate)', 'low polyreactivity'),
  ('QVQLVESGGGLVQAGGSLRLSCAASGSIFSDYAIGWYSTAPGKERELVASISWTGGGTYYADSVKGRFTISRDNAKNTVYLQMNSVKPEDTGFYYCAAEYSYIMDFWGQGTQVTVSS', 'polyreactivity (PSR sort gate)', 'high polyreactivity'),
  ('QVQLVESGGGLVQAGGSLRLSCAASGSIFLASAMGWYRQAPGKERELVAAITAGTGSTYYADSVKGRFTISRDNAKNTVYLQMNSLKPEDTAVYYCAKAVSLFRGPFSSFDYWGQGTQVTVSS', 'polyreactivity (PSR sort gate)', 'low polyreactivity'),
  ('QVQLVESGGGLVQAGGSLRLSSAASGITFRNYAMGWSRQAPGKERELVAAITRGGRTNYADSVKGRFTISRDNAKNTVYLQMNSLKPEDTAVYYCATGRDSNFGNSYYYWGQGTQVTVSS', 'polyreactivity (PSR sort gate)', 'high polyreactivity'),
  ('QVQLVESGGGLVQAGGSLRLSCAASGSIFWYYVMGWYRPAPGKERELVAAISNVSTYYADSVKGRFTISRDNAKNTVYLQMNSLKPEDTAVYYCAARGLLWYYSWRYYYWGQGTQVTVSS', 'polyreactivity (PSR sort gate)', 'low polyreactivity'),
  ('QDQLVESGGGLVQAGGSLRLSCAASGSIFRYYAMGWYIQAPGKEREFVASITYRGGRTYYADSVKGRFTISRDNAKNTFFLQMNSLKPEDTAVYYCAARTRAGAWTSKYHDYWGQGTQVNVSS', 'polyreactivity (PSR sort gate)', 'high polyreactivity'),
  ('QVQLVESGGGLVQAGCSLRLSCAASGSIFAVYAMGWYRQATGKERELVAAISWSVGSTYYADSVKGRFTISRDHAKNTVYFQMNSLKPEDTAVYYCAAELAYYLDYVEYFTEIDLEGYWGQGTQVTVSS', 'polyreactivity (PSR sort gate)', 'low polyreactivity'),
  ('QVQLVESGGGLVQAGGSLRLSCAASGSTFTKYAMGWYRQAPGKERELVAAISRSGGGTYYADSVKGRFTISRDNAKNTVYLQMNILKPEDTAVYYCNAALFRGAQFDYWGQGTQVTVSS', 'polyreactivity (PSR sort gate)', 'high polyreactivity'),
  ('QVQLVESGGGLVQAGGSLRLSCAASGSIFGAYAMGWYRQAPGKERELVAAIDKSTGSTYYADSVKGRFTISRDNAKNTVYLQMNSLKPEDTAVYYCAKDWGVYQYSYDYWGQGTQVTVSS', 'polyreactivity (PSR sort gate)', 'low polyreactivity'),
  ('QVQLVESGGGLVQAGGSLRLSCAASGSIFFRYAMGWYRQAPGKERELVARISWGGGRTYYADSVKGRFTISRDNAKNTVYLQMNSLKPEDTAVYYCNRAYWVNPGGFDYWGQGTQVTVSS', 'polyreactivity (PSR sort gate)', 'high polyreactivity'),
  ('QVQLVESGGGLVQAGGSLRLSCAASGRTFVRYAMGWSRQAPGKERELVAAITKSGGSTSYADSVKGRFTISRDNAKNTVYLQMNSLKPEDTAVYYCATRGYYQRSSPMDYWGQGTQVTVSS', 'polyreactivity (PSR sort gate)', 'high polyreactivity'),
  ('QVQLVESGGGLVQAGGSLRLSCAASGSIFGDNAMGWYRQAPGKERELVAAISIVGSTSYADSVKGRFTISRDNAKNTVYLQMNSLKPEDTAVYYCAADTFYSYYDMDYWGQGTQVTVSS', 'polyreactivity (PSR sort gate)', 'low polyreactivity'),
  ('QVQLVESGGGLVQAGGSLRISCAASGSTFASTALGRYRLAAGKEMELVASISGSGGSTFYADSVKGRFTISRDNAKNTVYLQMNSLKPEDTEVYYCAAYKEPYYEEYGYGGQGTQVTVSS', 'polyreactivity (PSR sort gate)', 'low polyreactivity'),
  ('QVQLVESGGGLVQAGGSLRLSCAASGRIFVINAMGLYRQAPGKERELVADITWSGGSTYADSVKGRFTISRDTAKNTVYLQLNSLKPEDTAVYYCAAVYLRVDRYLQVYRYDYWGQGTQVTVSS', 'polyreactivity (PSR sort gate)', 'high polyreactivity'),
  ('QVQLVESGGGLVQAGGSLRLSCAASGSTFWSYAMGWYRPAPGKERELVAAITSGGRTYYADSVKGRFTISRDNAKNTVYLQMNSLKPEDTAVYYCNAVVRHTYRRFDYWGQGTQVTVSS', 'polyreactivity (PSR sort gate)', 'high polyreactivity'),
  ('QVHLQESGGGMVQAGGSLRLSCAESGNIFLGDTMGWYRQPPGKEREFVAGIARGGNPYYADSLKGRFTISRNNAKNTVYLQKNSLKPEDTAVHYCAFLRSHASDYIYWGQGTQVTVSS', 'polyreactivity (PSR sort gate)', 'low polyreactivity'),
  ('QVQLVESGGGLVQAGGSLRLSCAASGRTFYSNAMGWYRQAPGKERELVAAISYNDGSTYYADSVKGRFTISRDNAKNTVYLQMNSLKPEDTAVYYCNADVGAWAWYTRYDYWGQGTQVTVSS', 'polyreactivity (PSR sort gate)', 'low polyreactivity'),
  ('QVQLVESGGGLVQAGGSLRLSCPASGTIFYVNAMGLYRQEPGKETEFVAAITGGASTNFADSVKGRFTSSRDNAKNTVYLQMNSLKPEDTAVYYCAVDPVGHATRVWTYHYDYWGQGTQVTVSS', 'polyreactivity (PSR sort gate)', 'low polyreactivity');

---

protocol: yeast display, Sf9 membrane polyspecificity reagent, FACS + sequencing; frameworks hold sequencing errors
attribute_measured: polyreactivity (PSR sort gate)

INSERT INTO assay_data (seq, attribute_measured, experimental_result) VALUES
  ('QVQLVESGGGLVQAGGSLRLSCAASGFIIGFNAMGWYRQAPGKERELVAAISGSGGRTYYADSVKGRFTISRDNAKNTVYLQMNSLKPEDTAVYYCAKVGYKSPYLYSQHYTGFGYWGQGTQVTVSS', 'polyreactivity (PSR sort gate)', 'high polyreactivity'),
  ('QVKLVESGGGLVQAGGSLRLICAASGRIFVPYAMGWNRQAPWKETELFAAISRSGGSTYYADSVKGRFTISRDNAKNTVYLQMNSLKTEETAVYYCAVYYRRYKEYGYNYWGQGTEVTVSS', 'polyreactivity (PSR sort gate)', 'high polyreactivity'),
  ('QVQLVESGGGLVQAGGSLRLSCAACGRTFVDYVMGSYRQAPGKERELVAAISRSGSTYYADSVKGRFTISRDNAKNTVYLQRNSLKPEDTAVYYCAASSVALPWYASWYVYGYEYCGQGTQVTVSS', 'polyreactivity (PSR sort gate)', 'low polyreactivity'),
  ('QDQLVESGGGLVQAGGSLRLSCAASGNIFVTNAMGWYRQAPGKERELVAAITYSGGTTYYADSVKGRFTISRDNAKNTVYLQMNSLKPEDTAVYYCAADFATWTYYPYRLDEFDYWGQGTQVTVSS', 'polyreactivity (PSR sort gate)', 'low polyreactivity'),
  ('QVQLVESGGGLGQAGGTLRLTCAASGSIFRTYAMGWYRQAPGKERELVAAITWSGGRTYYADSVKGRFTISRDNATNTVYLPMISLKPDDTAVYYCNAVYLAYGGDYWGQGTQVTVSS', 'polyreactivity (PSR sort gate)', 'high polyreactivity'),
  ('QVQLVESGGGLVQAGGSLRLSCAASGLIFESNAMGWYRQAPGKERELVAAITTNGGSTYYADSVKGRFTISRDNAKNTVYFQMNSLKPEVTAVYYCAALGLHQVIEYDYWGQGTQVTVSS', 'polyreactivity (PSR sort gate)', 'low polyreactivity'),
  ('QVQLVESGGGLDQAGGSLRLSCAASGSIFAPNAMGWYRQAPGKERELVAAITSSGGRTYYADSVKGRFTISRDNAKNTVYLQMNSLKPEDTAVYYCNACYYVRRDYDYWGQGTQVTVSS', 'polyreactivity (PSR sort gate)', 'low polyreactivity'),
  ('QVQLVESGGGLVQAGGSLRLSCAASGRIFYAYAMGWYRQAPGKERELVAAISSGGSTKYADSVKGRFTISRDNAKNTVYLQMNSLKPEDTAVYYCNADATAQSFGTLFDYWGQGTQVTVSS', 'polyreactivity (PSR sort gate)', 'low polyreactivity'),
  ('QVQLVESGGGLVQAGGSLRLSCAASGITFGSYAMGWYRQAPGKERELVAAITSGGGTNYADSVKGRFTISRDNPKNTVYLQMNSLKPEDTAVYYCAARYYYLGTRYGYWGQGTQVTVSS', 'polyreactivity (PSR sort gate)', 'low polyreactivity'),
  ('QVQLVESGGGLVQAGGSLRLSCAASGRTFRWNAIGWYRQAPGKERELVASISSGGRTNYADSVKVRFTISRDNEKNTVYLQMNSLKPEDTAVYYCAKRVSWPQLYDYWGQGTQVTVSS', 'polyreactivity (PSR sort gate)', 'high polyreactivity'),
  ('QVQLVESGGGLVQAGASLRLSCAASGLTFIFYAMGWYRQAPGKERELVAAISVSGGCTYYADSVKGRFTISRDNAKNTVYLQMNSLKPEDTAVYYCAADREHFATYGPHMDYWGQGTQVTVSS', 'polyreactivity (PSR sort gate)', 'low polyreactivity');
